assay: The drug is tested on Z-006 corresponding to mouse gut metagenome with ENA study accession number: PRJEB37062 and ENA sample accession number: ERS12561806 for biotransformation under anaerobic condition. The drug concentrations were measured over 9 timepoints collected between 0 and 24 hours of incubation by liquid-chromatography-coupled mass spectrometry (LC–MS); settings: 2 µM; also: call rule not given here
Measurement Type: Bacterial Biotransformation

Example entries begin here.
[
  {
    "Compound": "COc1cc(NC(C)CCCN)c2ncccc2c1.O=P(O)(O)O.O=P(O)(O)O (stereo not drawn) [PRIMAQUINE PHOSPHATE]",
    "Measurement Type": "Bacterial Biotransformation",
    "Assay Value": "Compound NOT metabolized"
  },
  {
    "Compound": "CC(=O)Nc1ccc(OC(C)=O)cc1 [DIACETAMATE]",
    "Measurement Type": "Bacterial Biotransformation",
    "Assay Value": "Compound metabolized"
  },
  {
    "Compound": "C[C@H]1C[C@H]2[C@@H]3CCC4=CC(=O)C=C[C@]4(C)[C@@]3(F)[C@@H](O)C[C@]2(C)[C@@]1(O)C(=O)CO [BETAMETHASONE]",
    "Measurement Type": "Bacterial Biotransformation",
    "Assay Value": "Compound NOT metabolized"
  },
  {
    "Compound": "O=C1CC2(CCCC2)CC(=O)N1CCCCN1CCN(c2ncccn2)CC1 [BUSPIRONE]",
    "Measurement Type": "Bacterial Biotransformation",
    "Assay Value": "Compound NOT metabolized"
  },
  {
    "Compound": "COc1ccc2c(c1)c(CC(=O)O)c(C)n2C(=O)c1ccc(Cl)cc1 [INDOMETHACIN]",
    "Measurement Type": "Bacterial Biotransformation",
    "Assay Value": "Compound NOT metabolized"
  },
  {
    "Compound": "COc1ccc(Cc2nccc3cc(OC)c(OC)cc23)cc1OC [PAPAVERINE]",
    "Measurement Type": "Bacterial Biotransformation",
    "Assay Value": "Compound NOT metabolized"
  },
  {
    "Compound": "C#C[C@]1(OC(C)=O)CC[C@H]2[C@@H]3CCC4=CC(=O)CC[C@@H]4[C@H]3CC[C@@]21C [NORETHINDRONE ACETATE]",
    "Measurement Type": "Bacterial Biotransformation",
    "Assay Value": "Compound metabolized"
  },
  {
    "Compound": "CC(N)C12CC3CC(CC(C3)C1)C2 (stereo not drawn) [RIMANTADINE]",
    "Measurement Type": "Bacterial Biotransformation",
    "Assay Value": "Compound NOT metabolized"
  },
  {
    "Compound": "CN1CCCCC1CCN1c2ccccc2Sc2ccc([S+](C)[O-])cc21.O=S(=O)(O)c1ccccc1 (stereo not drawn) [MESORIDAZINE BESYLATE]",
    "Measurement Type": "Bacterial Biotransformation",
    "Assay Value": "Compound NOT metabolized"
  },
  {
    "Compound": "CCCC(C)(COC(N)=O)COC(=O)NC(C)C (stereo not drawn) [CARISOPRODOL]",
    "Measurement Type": "Bacterial Biotransformation",
    "Assay Value": "Compound metabolized"
  }
]

Would you kindly share the measured Bacterial Biotransformation for CC#C[C@]1(O)CC[C@H]2[C@@H]3CCC4=CC(=O)CCC4=C3[C@@H](c3ccc(N(C)C)cc3)C[C@@]21C [MIFEPRISTONE] ?
Compound metabolized

Given CN(CCOc1ccc(CC2SC(=O)NC2=O)cc1)c1ccccn1.O=C(O)/C=C\C(=O)O (stereo not drawn) [ROSIGLITAZONE MALEATE] , state its recorded Bacterial Biotransformation.
Compound NOT metabolized

Request the reported Bacterial Biotransformation associated with Br.CN1CCC[C@@H]1Cc1c[nH]c2ccc(CCS(=O)(=O)c3ccccc3)cc12 [ELETRIPTAN HYDROBROMIDE]
Compound NOT metabolized

Item under review: CCOc1ccc2nc(S(N)(=O)=O)sc2c1 [ETHOXZOLAMIDE] . Reported Bacterial Biotransformation?
Compound NOT metabolized

Give its Bacterial Biotransformation value. Item: O=C(CCCN1CCC2(CC1)C(=O)NCN2c1ccccc1)c1ccc(F)cc1 [SPIPERONE]
Compound NOT metabolized

Can you share its Bacterial Biotransformation? I mean this compound: CN[C@H]1CC[C@@H](c2ccc(Cl)c(Cl)c2)c2ccccc21 [SERTRALINE]
Compound NOT metabolized

Look up Bacterial Biotransformation for this compound: CN1CCC(OC(c2ccccc2)c2ccccc2)CC1
Compound NOT metabolized
